system: U2OS; experiment: Multiplex assay against U2OS; type: toxicity, cell-based; settings: human, 12 h, 10 µM, compound concentration 10 uM, replicate 2
Threshold 30%: Population Membrane Permeable-Phenotype (%) strictly smaller gives Y, otherwise N.

1) c1ccc(-c2oc3ncnc(NC[C@@H]4CCCO4)c3c2-c2ccccc2)cc1    N
2) Cc1c(P(=S)(c2ccccc2)c2ccccc2)n2ccccc2[n+]1C/C=C/c1ccccc1.[Br-]    N
3) CCCCN(CC)c1nc(C)nc2c1c(C)cn2-c1c(C)cc(C)cc1C.Cl    Y
4) C[C@@H](Oc1cc(-n2cnc3ccc(CN4CCN(C)CC4)cc32)sc1C(N)=O)c1ccccc1C(F)(F)F    N
5) CCOC(=O)CCNc1cc(N2CCc3ccccc3CC2)nc(-c2ccccn2)n1    Y
6) Oc1cccc(-c2nc(N3CCOCC3)c3oc4ncccc4c3n2)c1    N
7) CCCc1cc(C)[nH]c(=O)c1CNC(=O)c1cc(-c2ccc(N3CCN(C(C)C)CC3)nc2)cc2c1cnn2C(C)C    N
8) Cc1ccc(S(=O)(=O)NC2c3ccccc3Oc3ccccc32)cc1    N
9) CC(C)[C@H](CO)Nc1nc(Nc2cccc(Cl)c2)c2ncn(C(C)C)c2n1    Y

###

Population Mitochondria Different-Phenotype (%) overview
test system: Fibroblast; assay: Multiplex assay against human fibroblast; type: toxicity, cell-based; details: 48 h, 10 µM, compound concentration 10 uM, replicate 2
readout name: Population Mitochondria Different-Phenotype (%)

1) Cl.NC[C@@H]1O[C@H](C23CC4CC(CC(C4)C2)C3)Cc2c1ccc(O)c2O    1%
2) c1ccc(-c2oc3ncnc(NC[C@@H]4CCCO4)c3c2-c2ccccc2)cc1    42%
3) N#CCNC(=O)c1ccc(-c2ccnc(Nc3ccc(N4CCOCC4)cc3)n2)cc1 [MOMELOTINIB]    1%
4) CCCCN(CC)c1nc(C)nc2c1c(C)cn2-c1c(C)cc(C)cc1C.Cl    10%
5) CC(/C=C1\SC(=S)N(CCCC(=O)Nc2ccc(C(=O)O)c(O)c2)C1=O)=C\c1ccccc1    4%

###

system: Fibroblast; assay: Multiplex assay against human fibroblast; type: toxicity, cell-based; details: 12 h, 10 µM, compound concentration 10 uM, replicate 2
readout name: Population Hoechst High Intensity Objects (%)

1) CCCc1cc(C)[nH]c(=O)c1CNC(=O)c1cc(-c2ccc(N3CCN(C(C)C)CC3)nc2)cc2c1cnn2C(C)C    5
2) CC(/C=C1\SC(=S)N(CCCC(=O)Nc2ccc(C(=O)O)c(O)c2)C1=O)=C\c1ccccc1    7
3) CN(c1cc(C(F)(F)F)nc(OCCC(=O)O)n1)c1cccc2c1CCC2    14
4) CC[C@H](Nc1ncnc2[nH]cnc12)c1nc2cccc(F)c2c(=O)n1-c1ccccc1    34
5) CCOC(=O)CCNc1cc(N2CCc3ccccc3CC2)nc(-c2ccccn2)n1    40
6) Oc1cccc(-c2nc(N3CCOCC3)c3oc4ncccc4c3n2)c1    5
7) CCCCCNC(=N)N/N=C/c1c[nH]c2ccc(OC)cc12.O=C(O)/C=C\C(=O)O [TEGASEROD MALEATE]    35
8) Cc1ccc(NC(=O)Nc2cc(C(F)(F)F)ccc2F)cc1Nc1ccc2c(c1)NC(=O)/C2=C\c1ccc[nH]1    20
9) Cl.Cn1c2c(c3ccc(Cl)c(Cl)c31)C(C#N)C1(CCNCC1)NC2=O (stereo not drawn)    23
10) CN1C(=O)[C@@H](NC(=O)c2cc3ccccc3[nH]2)N=C(c2ccccc2)c2ccccc21 [DEVAZEPIDE]    7
11) N#Cc1cccc(C(=O)Nc2cc(-c3ccccc3)nn2-c2ccccc2)c1    9
12) CC(C)c1cc(Nc2nc(N3CCC[C@H](N)C3)ncc2C(N)=O)cc(C(C)C)n1    14
13) N#CCNC(=O)c1ccc(-c2ccnc(Nc3ccc(N4CCOCC4)cc3)n2)cc1    10
